conditions: in cyclohexane, 298.15 K
recordedEndpoint: solubility (mole fraction)
Numbers only.

// recorded solubility (mole fraction) for CC(C)OC(=O)[C@H](C)N[P@](=O)(OC[C@H]1O[C@@H](n2ccc(=O)[nH]c2=O)[C@](C)(F)[C@@H]1O)Oc1ccccc1 : 2.09e-06

###

conditions: in ethanol, 293.15 K
recordedEndpoint: solubility (mole fraction)
Give bare numbers.

// recorded solubility (mole fraction) for CC(C)OC(=O)[C@H](C)N[P@](=O)(OC[C@H]1O[C@@H](n2ccc(=O)[nH]c2=O)[C@](C)(F)[C@@H]1O)Oc1ccccc1 : 0.0416

###

settings: in cyclohexane, 313.15 K
recordedEndpoint: solubility (mole fraction)
One number for each entry.

// recorded solubility (mole fraction) for CC(C)OC(=O)[C@H](C)N[P@](=O)(OC[C@H]1O[C@@H](n2ccc(=O)[nH]c2=O)[C@](C)(F)[C@@H]1O)Oc1ccccc1 : 6.11e-06

The measurements presented in this section are drawn from BigSolDB 2.1.
